Biological target: T1, monkey CD22 on HEK293T-monkey CD22 cells (monkey)
T1 construct: full-length entry expressed on stably transfected HEK293T cells
T1 chain: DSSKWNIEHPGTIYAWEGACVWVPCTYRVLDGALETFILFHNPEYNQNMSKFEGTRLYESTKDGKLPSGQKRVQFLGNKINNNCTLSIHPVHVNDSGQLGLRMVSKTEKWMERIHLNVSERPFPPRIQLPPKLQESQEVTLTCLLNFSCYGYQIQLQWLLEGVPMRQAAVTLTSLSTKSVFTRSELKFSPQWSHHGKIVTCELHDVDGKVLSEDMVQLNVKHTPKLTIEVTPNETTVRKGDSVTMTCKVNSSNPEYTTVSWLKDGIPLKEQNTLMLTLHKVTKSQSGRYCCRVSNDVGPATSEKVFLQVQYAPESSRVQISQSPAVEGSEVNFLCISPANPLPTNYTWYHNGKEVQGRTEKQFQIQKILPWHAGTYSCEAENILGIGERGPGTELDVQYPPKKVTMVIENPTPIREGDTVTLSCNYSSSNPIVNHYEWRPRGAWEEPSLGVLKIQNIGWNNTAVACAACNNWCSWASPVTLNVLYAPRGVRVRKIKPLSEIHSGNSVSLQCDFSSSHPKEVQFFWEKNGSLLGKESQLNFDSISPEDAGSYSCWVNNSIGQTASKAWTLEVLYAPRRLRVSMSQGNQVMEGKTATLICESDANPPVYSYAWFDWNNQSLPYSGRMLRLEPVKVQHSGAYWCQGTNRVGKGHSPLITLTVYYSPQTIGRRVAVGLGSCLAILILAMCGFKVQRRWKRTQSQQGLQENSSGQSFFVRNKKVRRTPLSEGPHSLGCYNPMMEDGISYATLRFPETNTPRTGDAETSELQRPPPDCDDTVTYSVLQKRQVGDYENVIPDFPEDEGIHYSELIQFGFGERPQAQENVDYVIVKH
Assay: FACS, HEK293T-monkey CD22 cells
Recorded endpoint: Maximum mean fluorescence intensity (MFI)
I only need the number, in MFI, no unit after it.

Examples with their reported Maximum mean fluorescence intensity follow.
F1.172.13 (antibody, human IgG1, kappa, V domains shown, human-murine chimeric IgG1 kappa) VH: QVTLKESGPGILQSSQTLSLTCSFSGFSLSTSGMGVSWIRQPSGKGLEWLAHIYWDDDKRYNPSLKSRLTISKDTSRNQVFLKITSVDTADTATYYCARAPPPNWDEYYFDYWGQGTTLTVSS VL: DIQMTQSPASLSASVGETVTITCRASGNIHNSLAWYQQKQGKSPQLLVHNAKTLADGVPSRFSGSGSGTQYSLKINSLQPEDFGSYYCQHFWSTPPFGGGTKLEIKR; 19000
HA22-hIgG1 (antibody, V domains shown) VH: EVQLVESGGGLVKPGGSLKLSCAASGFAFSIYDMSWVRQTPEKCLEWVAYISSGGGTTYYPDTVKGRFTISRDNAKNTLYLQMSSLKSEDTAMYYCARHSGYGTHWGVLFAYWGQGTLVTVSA VL: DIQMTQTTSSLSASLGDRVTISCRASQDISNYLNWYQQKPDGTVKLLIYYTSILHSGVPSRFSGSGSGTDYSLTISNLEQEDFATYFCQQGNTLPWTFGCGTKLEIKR; 17100
F1.250.16 (antibody, human IgG1, kappa, V domains shown, human-murine chimeric IgG1 kappa; VL name legible) VH: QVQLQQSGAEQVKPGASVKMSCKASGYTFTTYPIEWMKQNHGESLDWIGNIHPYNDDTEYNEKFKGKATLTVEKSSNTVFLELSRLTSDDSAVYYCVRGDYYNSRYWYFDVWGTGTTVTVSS VL: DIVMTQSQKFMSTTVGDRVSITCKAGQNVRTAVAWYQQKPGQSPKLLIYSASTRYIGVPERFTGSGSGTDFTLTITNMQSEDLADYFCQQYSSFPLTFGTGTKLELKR; 19700
m971-hIgG1 (antibody, V domains shown, control anti-CD22 antibody; variable regions from US 8,591,889 on human IgG1 constant regions) VH: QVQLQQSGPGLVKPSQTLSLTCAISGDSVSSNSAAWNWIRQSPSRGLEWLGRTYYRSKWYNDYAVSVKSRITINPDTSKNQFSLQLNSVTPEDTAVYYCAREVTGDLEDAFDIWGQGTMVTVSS VL: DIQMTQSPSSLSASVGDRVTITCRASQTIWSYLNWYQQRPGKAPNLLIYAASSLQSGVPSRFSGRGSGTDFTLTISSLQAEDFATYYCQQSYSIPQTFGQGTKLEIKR; 49

Turning now to a further record.
Given the binder F1.231.15 (antibody, IgG1, V domains shown, human-murine chimeric IgG1 kappa) VH: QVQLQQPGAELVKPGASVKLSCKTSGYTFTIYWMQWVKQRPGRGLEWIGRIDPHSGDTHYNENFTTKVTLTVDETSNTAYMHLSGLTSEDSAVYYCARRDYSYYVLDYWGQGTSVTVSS VL: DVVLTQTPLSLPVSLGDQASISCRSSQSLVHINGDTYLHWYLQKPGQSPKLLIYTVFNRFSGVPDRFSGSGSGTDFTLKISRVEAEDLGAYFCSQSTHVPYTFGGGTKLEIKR , write its reported Maximum mean fluorescence intensity. 9250
